Hey, just so you know, these numbers are from patent US10925971B2.

- tgt: T1, monkey PRLR on HEK293/mfPRLR cells (Macaca fascicularis, UniProt A0A2K5WXK1)
- T1 construct: HA; expressed in transfected cells; host or cells: HEK293
- T1 sequence (A0A2K5WXK1 25-619): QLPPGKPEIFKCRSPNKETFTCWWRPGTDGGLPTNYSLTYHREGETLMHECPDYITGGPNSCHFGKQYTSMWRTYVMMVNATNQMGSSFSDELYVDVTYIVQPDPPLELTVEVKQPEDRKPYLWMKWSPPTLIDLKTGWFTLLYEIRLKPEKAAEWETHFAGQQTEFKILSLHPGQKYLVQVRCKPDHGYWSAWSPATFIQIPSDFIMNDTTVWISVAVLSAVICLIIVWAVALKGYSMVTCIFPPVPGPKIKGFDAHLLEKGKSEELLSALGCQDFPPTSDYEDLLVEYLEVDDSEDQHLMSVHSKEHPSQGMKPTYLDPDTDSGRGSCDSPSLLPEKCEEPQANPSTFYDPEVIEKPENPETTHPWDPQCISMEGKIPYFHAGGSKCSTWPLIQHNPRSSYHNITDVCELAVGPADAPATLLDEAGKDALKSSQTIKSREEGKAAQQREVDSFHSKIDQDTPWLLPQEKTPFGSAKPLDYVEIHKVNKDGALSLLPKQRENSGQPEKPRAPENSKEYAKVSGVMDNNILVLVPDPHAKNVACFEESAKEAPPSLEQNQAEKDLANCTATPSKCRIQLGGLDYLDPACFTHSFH
- measurement notes: FACS cell surface binding
property label: FACS Cell Binding (Fold Above Background)
Output spec: scalar in Fold Above Background, unitless text.

Req: Answer with the recorded FACS Cell Binding of H1H6801P: fully human anti-PRLR antibody, human IgG1 Fc; HCVR/LCVR SEQ ID NOs 210/218 (antibody, V domains shown) VH: QVQLQQSGPGLVKPSQTLSLTCVISGDSVSSNTAWNWVRQSPSRGLEWLGRTYYRSKWYNDYAVSVKSRITINPDTSKNQFSLLMNSVTPEDTAVYYCARVVRGLNYFDYWGQGTLVTVSS VL: DIVMTQSPDSLAVSLGERATINCKSSQSVLYNSNNKNYLAWYQQKPGQPPKLLIYWSSSRESGVPDRFSGSGSGTDFTLTISGLQAEDVAIYYCQQYSTIPYTFGQGTKLEIK only.
Resp: 88
